Biological target: MAGL (Homo sapiens, UniProt Q99685)
Sequence (Q99685 1-303): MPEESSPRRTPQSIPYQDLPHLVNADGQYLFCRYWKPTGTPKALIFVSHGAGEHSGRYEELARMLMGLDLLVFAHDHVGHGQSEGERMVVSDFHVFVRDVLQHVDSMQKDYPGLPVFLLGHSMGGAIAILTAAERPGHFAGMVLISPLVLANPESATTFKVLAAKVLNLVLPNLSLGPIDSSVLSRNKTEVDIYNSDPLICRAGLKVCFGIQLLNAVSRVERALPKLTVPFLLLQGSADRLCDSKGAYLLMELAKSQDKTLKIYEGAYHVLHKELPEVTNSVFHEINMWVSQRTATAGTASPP
reported.property: IC50 (nM)
Unit nM implied. Number only.

Solved entries (count: 2):
                                   compound  assay_value
0  O=C(N1CCN(c2nc3nc(Cl)ccc3o2)CC1)N1CC(C#Cc2c(Cl)cccc2Cl)C1 [Example 249]           22
1  CC(C)(C)Cn1ncc(-c2ccc(C(=O)N3CCN(c4nc5nc(Cl)ccc5o4)CC3)cc2F)n1 [Example 84]            2

Using the record for CC(C)(C)Cn1cc(-c2ccc(C(=O)N3CCN(c4nc5nc(Cl)ccc5o4)C[C@@H]3CO)cc2)nn1 (stereo in doubt) [Example 290] , report its IC50.
2070

---

Molecular target: MAGL (Homo sapiens)
Test: 2-AG assay: MAGL inhibitory activity by hydrolysis of 2-arachidonoylglycerol to arachidonic acid, mass spectrometry
Format: biochemical
Details: 2-AG assay (values marked [b])
Recorded pIC50 values for a group of compounds are listed next.
// field semantics: pIC50 = negative decimal log of concentration (mol/L)

>>> df
                                   compound  assay_value
0  Cc1cc(C(=O)N2CCN(c3nc4nc(Cl)ccc4o3)CC2)cnc1-c1nnn(CC(C)(C)C)n1         6.95
1  O=C(c1ccc(-c2cn(CC(F)(F)F)nn2)cc1)N1CCN(c2nc3nc(Cl)ccc3o2)CC1         6.84
2  CC(C)(C)c1nc(-c2ccc(C(=O)N3CC4CCC(C3)N4c3nc4nc(Cl)ccc4o3)cc2)no1         6.46
3  Cc1cc(C(=O)N2CCN(c3nc4nc(Cl)ccc4o3)CC2)ccc1-c1cnn(CC(C)(C)C)n1         9.00

Using the record for Cc1ccc2oc(N3CCN(C(=O)c4ccc(-c5ncn(C(C)(C)C)n5)c(F)c4)CC3)nc2n1 , report its pIC50.
7.44

Request: Cc1ccc2oc(N3CCN(C(=O)c4ccc(-c5cn(CC6(F)CC6)nn5)cc4)CC3)nc2n1
6.33

Request: Cc1ccc2oc(N3CCN(C(=O)c4cnc(-c5nnn(CC(C)(C)C)n5)c(F)c4)CC3)nc2n1
5.95

Request: Cc1ccc2oc(N3CCN(C(=O)c4ccc(-c5nnc(CC(C)(C)C)n5C)cc4)CC3)nc2n1
6.49

Request: COc1cc(C(=O)N2CCN(c3nc4nc(C)ccc4o3)CC2)cnc1-c1nnn(CC(C)(C)C)n1
6.78

Request: Cc1cc(C(=O)N2CCN(c3nc4nc(Cl)ccc4o3)CC2)ccc1-c1ncn(C(C)(C)C)n1
7.92

Request: CC(C)(F)Cc1nnc(-c2ccc(C(=O)N3CCN(c4nc5nc(Cl)ccc5o4)CC3)cc2F)o1
7.02

---

Biological target: MAGL (recombinant wild-type) (Homo sapiens, UniProt Q99685)
Sequence (Q99685 1-303): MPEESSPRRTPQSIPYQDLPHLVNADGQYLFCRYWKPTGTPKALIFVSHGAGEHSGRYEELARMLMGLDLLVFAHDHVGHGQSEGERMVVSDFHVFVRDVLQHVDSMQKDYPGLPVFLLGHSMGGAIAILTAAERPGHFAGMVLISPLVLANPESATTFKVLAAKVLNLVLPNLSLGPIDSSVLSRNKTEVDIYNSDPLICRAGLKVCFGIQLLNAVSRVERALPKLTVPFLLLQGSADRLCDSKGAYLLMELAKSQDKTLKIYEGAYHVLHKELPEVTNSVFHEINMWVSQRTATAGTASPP
Assay: 4-NPA assay: MAGL inhibitory activity by hydrolysis of 4-nitrophenylacetate, absorbance at 405 nm
Details: 4-NPA assay (values without footnote [b])
Procedure: Compounds were profiled for MAGL inhibitory activity by measuring the enzymatic activity of MAGL by following the hydrolysis of 4-nitrophenylacetate resulting in 4-nitrophenol, which absorbs at 405-412 nm (G. G. Muccioli, G. Labar, D. M. Lambert, Chem. Bio. Chem. 2008, 9, 2704-2710). This assay is hereinafter abbreviated “4-NPA assay”. The assay was carried out in 384 well assay plates (black with clear bottom, non-binding surface treated, Corning Ref. 3655) in a total volume of 40 μL. […]
reported.property: IC50 (nM)
Unit nM implied. Number only.

Solved entries (count: 5):
                                   molecule  assay_value
0  Cc1ccc2oc(N3CCN(C(=O)c4ccc5nc(CCC(F)(F)F)oc5c4)CC3)nc2n1 [Example 18]          434
1  Cc1ccc2oc(N3CCN(C(=O)c4cc(Cl)cc(N5CCC(CO)CC5)c4)CC3)nc2n1 [Example 178]         2490
2  CC(C)(F)c1nc(-c2ccc(C(=O)N3CCN(c4nc5nc(Cl)ccc5o4)CC3)cc2)no1 [Example 24]           74
3  O=C(c1ccc(N2CCC3(C2)CC3(F)F)cc1)N1CCN(c2nc3nc(Cl)ccc3o2)CC1 (centres unmarked) [Example 202]           14
4  Cc1ccc2oc(N3CCN(C(=O)c4ccc(-c5noc(C(C)(C)C)n5)c(C)c4)CC3)nc2n1 [Example 56]           11

Using the record for Cc1ccc2oc(N3CCN(C(=O)c4cc(Cl)cc(N5CCC(F)(F)CC5)c4)CC3)nc2n1 [Example 177] , report its IC50.
3160

Request: Cc1ccc2oc(N3CCN(C(=O)c4ccc(-c5ncn(CC(C)(C)C)n5)cc4)CC3)nc2n1 [Example 28]
12

Request: CC1(COc2ncc(C(=O)N3CCN(c4nc5nc(Cl)ccc5o4)CC3)cc2F)CC1 [Example 145]
216

---

Target: MAGL (recombinant wild-type) (Homo sapiens)
Sequence (Q99685 1-303): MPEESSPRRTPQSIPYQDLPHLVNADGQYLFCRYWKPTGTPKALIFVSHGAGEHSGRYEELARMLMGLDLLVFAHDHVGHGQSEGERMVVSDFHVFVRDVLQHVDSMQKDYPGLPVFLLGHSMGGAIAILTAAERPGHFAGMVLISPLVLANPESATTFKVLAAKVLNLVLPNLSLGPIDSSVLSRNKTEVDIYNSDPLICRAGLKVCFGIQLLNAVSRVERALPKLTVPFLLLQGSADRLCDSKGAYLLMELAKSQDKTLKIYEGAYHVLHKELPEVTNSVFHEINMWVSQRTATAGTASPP
Assay: 4-NPA assay: MAGL inhibitory activity by hydrolysis of 4-nitrophenylacetate, absorbance at 405 nm
Details: 4-NPA assay (values without footnote [b])
Recorded pIC50 values for a group of compounds are listed next.
// field semantics: pIC50 = negative decimal log of concentration (mol/L)

>>> df
                                   compound                             tested_target  reported_property  assay_value
0  Cc1ccc2oc(N3CCN(C(=O)c4ccc(N5CC(O[C@H](C)C(F)(F)F)C5)cc4)CC3)nc2n1  MAGL (recombinant wild-type) (Homo sapiens)              pIC50         7.42

Using the record for Cc1ccc2oc(N3CCN(C(=O)c4ccc(N5CC(OC(C)C(F)(F)F)C5)nn4)CC3)nc2n1 (stereo not shown) , report its pIC50.
5.81

Request: CCC(C)(C)OC1CN(c2ccc(C(=O)N3CCN(c4nc5nc(C)ccc5o4)CC3)cn2)C1
7.15

Request: O=C(c1ccc(N2CC3(CCC3(F)F)C2)cc1)N1CCN(c2nc3nc(Cl)ccc3o2)CC1
7.46

Request: Cc1ccc2oc(N3CCN(C(=O)N4CC5(C4)CN(S(=O)(=O)c4cccc(Cl)c4)C5)CC3)nc2n1
5.62

Request: Cc1ccc2oc(N3CCN(C(=O)c4ccc(-n5cc(C(C)(C)C)cn5)cc4)CC3)nc2n1
7.92

Request: CC(C)(C)c1nc(-c2ccc(C(=O)N3CCN(c4nc5nc(Cl)ccc5o4)CC3)cn2)no1
6.57

Request: Cc1ccc2oc(N3CCN(C(=O)c4ccc(-n5cnc(C(C)(C)C)c5)cc4)CC3)nc2n1
7.20

Request: CC(C)(C)c1nnc(-c2ccc(C(=O)N3CCN(c4nc5nc(Cl)ccc5o4)CC3)cc2)o1
7.17

Request: O=C(c1ccc2nc(-c3ccccc3)oc2c1)N1CCN(c2nc3ncccc3o2)CC1
6.71

Request: Cc1ccc2oc(N3CCN(C(=O)c4ccc(N5CC(OC(C)C(F)(F)F)C5)cc4F)CC3)nc2n1 (stereo not shown)
7.80

Request: CC1(COc2ccc(C(=O)N3CCN(c4nc5nc(Cl)ccc5o4)CC3)cc2F)CC1
6.97

Request: CCCCc1nc2ccc(C(=O)N3CCN(c4nc5nc(C)ccc5o4)CC3)cc2o1
6.74

Request: O=C(c1ccc(-c2noc(C3(F)CC3)n2)cc1)N1CCN(c2nc3nc(Cl)ccc3o2)CC1
6.69

Request: Cc1ccc2oc(N3CCN(C(=O)c4ccc(-c5nc(C(C)(C)C)no5)cc4)CC3)nc2n1
7.35

Request: Cc1ccc2oc(N3CCN(C(=O)c4ccc(N5CC(O[C@@H](C)C(F)(F)F)C5)cc4)CC3)nc2n1
7.82
